- Read-out: Collagen III, COL3A1 (gene 1281)
- assayText: BSK_hDFCGF_CollagenIII: BioMAP Diversity Plus: hDFCGF Assay for Collagen III Biomarker Activity (AID 2283056)
- measurementContext: primary human foreskin fibroblasts; actives raise or lower the signal
Active and inactive are the calls of the source. How the source made its calls: active means hit-call score of the fitted dose curve at least 0.9, where 1 is the maximum; inactive means score below 0.9.
// allowed return values: active, inactive

Here are 5 molecules together with their reported answers.
C[C@](N)(Cc1ccc(O)c(O)c1)C(=O)O	inactive
COc1ccc2sc(C(=O)Nc3nnn[nH]3)c(OC(C)C)c2c1	active
CC1(C)C(=O)N(Br)C(=O)N1Br	inactive
CC(C)CC(C)(O)C#CC(C)(O)CC(C)C (stereo unspecified)	inactive
CCC(C)(C)C(=O)O[C@H]1C[C@@H](C)C=C2C=C[C@H](C)[C@H](CC[C@@H]3C[C@@H](O)CC(=O)O3)[C@H]21	active

From here, focus on the item given below.
Could you check what this test reported for COC(=O)c1ccccc1O ?
inactive
